target.desc: T1, VV B5 monomer protein (Wyeth Vaccinia strain B5 with C-terminal AVI tag and HIS6 tag) (Vaccinia virus, Wyeth strain, UniProt O57254 18-279)
T1 construct: also called B5 protein; VV B5 protein
protocol: BLI (Octet), antibody on AHC sensor, B5 monomer analyte
property.measured: kon (M⁻¹ s⁻¹)
The reply should be a number in M⁻¹ s⁻¹, with the unit left off.

Reported kon ( A048-H2L2 (antibody, V domains shown) VH: EVQLLESGGGLVQPGGSLRLSCAASGFSFSSSYYMCWVRQAPGKGLEWIACIYTSSGSAYYANWAKGRFTISRTSSTTVTLQMNSLRAEDTAVYYCVRNAVGSSYYLYLWGQGTLVTVSS VL: AQVLTQSPSTLSASVGDRVTITCQASQSVAGNNYLSWYQQKPGKAPKLLIYSVSTLASGVPSRFSGSGSGTEFTLTISSLQPDDFATYYCQGYYNDGIWAFGQGTKVEIK ) = 88100

Reported kon ( A048-H1L1 (antibody, V domains shown) VH: EVQLLESGGGLVQPGGSLRLSCAASGFSFSSSYYMCWVRQAPGKGLEWIACIYTSSGSAYYANWAKGRFTISRDNSKNTLYLQMNSLRAEDTAVYYCVRNAVGSSYYLYLWGQGTLVTVSS VL: DIQMTQSPSTLSASVGDRVTITCQASQSVAGNNYLSWYQQKPGKAPKLLIYSVSTLASGVPSRFSGSGSGTEFTLTISSLQPDDFATYYCQGYYNDGIWAFGQGTKVEIK ) = 76600

***
Reported kon ( A048-H3L3 (antibody, V domains shown) VH: EVQLLESGGGLVQPGGSLRLSCAASGFSFSSSYYMCWVRQAPGKGLEWIACIYTSSGSAYYADSVKGRFTISRDNSKNTLYLQMNSLRAEDTAVYYCVRNAVGSSYYLYLWGQGTLVTVSS VL: DIQMTQSPSSLSASVGDRVTITCQASQSVAGNNYLSWYQQKPGKVPKLLIYSVSTLASGVPSRFSGSGSGTDFTLTISSLQPEDVATYYCQGYYNDGIWAFGQGTKVEIK ) = 94900

Source listed as patent US20240309070A1.
